# credit: PubChem BioAssay

# Run description: inhibitors of the yeast RAM network, pilot screen, dse1pr::URA3 reporter, 5-FOA selection (AID 869);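 note: RAM network block rescues cells from 5-FOA so hits raise OD615 growth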
# Cond: S. cerevisiae dse1pr::URA3 5-FOA growth, OD615, 2 d; at 10 µM; active compounds read high; strain carries analog-sensitive mutant Cbk1 kinase
Decision: inhibition compared against 2%; not below it gives Condition met, below it gives Condition not met.

Example cases with answers are listed next.
[[record]]
molecule = "O=C1C(=O)N(CCCn2ccnc2)C(c2cccnc2)/C1=C(/O)c1ccc(Br)cc1 (stereo unspecified)"
category_label = "Condition not met"

[[record]]
molecule = "c1ccc(-c2csc3ncn4cnnc4c23)cc1"
category_label = "Condition not met"

[[record]]
molecule = "CCN(CC)C1CC(=O)N(c2cccc(C)c2)C1=O (stereo unspecified)"
category_label = "Condition met"


Now, please, on to the next molecule.
Confirm if inhibition reported for the molecule COc1ccc(S(=O)(=O)n2nc(-c3cc(OC)c(OC)c(OC)c3)cc2N)cc1OC is 2% or above.
Condition not met
